These data points were gathered from the supplement of paper PMC8671470.

# System: SHI-1
# condition details: 72 h
experimental readout: IC50 (cell viability) (µM)
Response body: numeric value in µM, unit text excluded.

| compound | target or test system | unit name | recorded result |
| --- | --- | --- | --- |
| Nc1nc(Cl)nc2c1ncn2[C@H]1C[C@H](O)[C@@H](CO)O1 [Cladribine] | SHI-1 | µM | 0.0439 |

Please find the next compound below.
Query: Entry N#CC(C#N)=NNc1ccc(OC(F)(F)F)cc1 [FCCP] has what IC50 (cell viability)?
Reply: 4.02

* * *

Reported values of cell viability for individual entries
# System: Mono-Mac-6
# assay notes: cell viability (% survival relative to DMSO control, bortezomib = 0%); higher = less cytotoxic
# condition details: 1 nM; 72 h
Response body: numeric value in %, unit text excluded.

Worked cases, answers included:
| compound | target or test system | experimental readout | recorded result |
| --- | --- | --- | --- |
| CCCCC/C=C\C/C=C\C/C=C\C/C=C\CCCCN1C(=O)C=CC1=O [N-Arachidonylmaleimide] | Mono-Mac-6 | cell viability | 94 |
| O=C(C1CC1)N1CC[C@@H](C=C2NNC(=O)N2c2ccc(-c3ccc4occc4c3)cc2)C1 | Mono-Mac-6 | cell viability | 94.7 |
| NC(=O)c1cccc(-c2cccc(OC(=O)NC3CCCCC3)c2)c1 | Mono-Mac-6 | cell viability | 102 |
| O=C(O)C[C@@]1(O)C[C@@H](CCCCCCc2ccc(Cl)cc2Cl)OC1=O | Mono-Mac-6 | cell viability | 96.3 |
| COc1ccc(-c2ccccc2)cc1NS(=O)(=O)c1cc(Cl)cc(Cl)c1O | Mono-Mac-6 | cell viability | 102 |
| C=C(C=NNC(=N)N)NNC(=N)N | Mono-Mac-6 | cell viability | 92.4 |

Query: Entry COc1ccc(C(=O)Nc2c(Cl)cncc2Cl)cc1OC1CCCC1 has what cell viability?
Reply: 93.6

Query: Entry O=C(NNc1ccccc1)c1ccncc1 has what cell viability?
Reply: 106

* * *

# Tested on: HL-60
# assay notes: cell viability (% survival relative to DMSO control); higher = less cytotoxic
# condition details: 10 µM; 72 h; co-treatment: GSK2194069 100 nM
experimental readout: cell viability (%)
Response body: numeric value in %, unit text excluded.

Worked cases, answers included:
| molecule | cell viability, % |
| --- | --- |
| CN(C)C(=O)[C@H](O)[C@H](Cc1ccccc1)NC(=O)c1cc2cc(Cl)ccc2[nH]1 | 99.4 |
| CCCCC/C=C\C/C=C\C/C=C\C/C=C\CCCCN1C(=O)C=CC1=O [N-Arachidonylmaleimide] | 100 |
| Cc1c(-c2ccc(-c3ccccc3F)cc2)nc2ccc(F)cc2c1C(=O)O [Brequinar] | 76.8 |
| CCN(CC)CCCC(C)Nc1ccnc2cc(Cl)ccc12 (centres undefined) [Chloroquine] | 89.7 |

Query: Entry O=c1oc2c(O)c(O)cc3c(=O)oc4c(O)c(O)cc1c4c23 [Benzoaric Acid] has what cell viability?
Reply: 100

Query: Entry C[C@H](NC(=O)c1sccc1OCc1ccc(Cl)cc1)c1ccccc1 has what cell viability?
Reply: 92.5

Query: Entry COc1ccc2c(C(=S)N(C)CC(=O)O)cccc2c1C(F)(F)F [Tolrestat] has what cell viability?
Reply: 97.1

Query: Entry Nc1ccccc1C(=O)C[C@H](N)C(=O)O [L-Kynurenine] has what cell viability?
Reply: 100

Query: Entry O=C(NCCCCCCNC(=O)ONC1=CCCCC1)ONC1=CCCCC1 has what cell viability?
Reply: 105

* * *

# Test system: HL-60
# assay notes: cell viability (% survival relative to DMSO control); higher = less cytotoxic
# condition details: 10 µM; 72 h; co-treatment: GSK2194069 100 nM
experimental readout: cell viability (%)
Response body: numeric value in %, unit text excluded.

| compound | recorded result |
| --- | --- |
| CCCCN1C[C@H](O)[C@@H](O)[C@H](O)[C@H]1CO | 101 |
| O=C(NNc1ccccc1)c1ccncc1 | 91.3 |
| C=C(C=NNC(=N)N)NNC(=N)N | 76.9 |
| CC(C)c1cc2c(c(O)c1O)[C@@]1(C(=O)O)CCCC(C)(C)[C@@H]1CC2 | 95.3 |
| CC(C)c1nc(CN(C)C(=O)N[C@H](C(=O)N[C@@H](Cc2ccccc2)C[C@H](O)[C@H](Cc2ccccc2)NC(=O)OCc2cncs2)C(C)C)cs1 | 67.1 |
| CC[C@H](C)C(=O)O[C@H]1C[C@@H](C)C=C2C=C[C@H](C)[C@H](CC[C@@H]3C[C@@H](O)CC(=O)O3)[C@H]21 | 98.5 |
| COc1ccc(CNC(=O)Nc2ncc([N+](=O)[O-])s2)cc1 | 116 |

Please find the next compound below.
Query: Entry CCCCCCCCCCCC(=O)c1c(O)c(C(=O)CCCCCCCCCCC)c(O)c(C2CC(c3ccc(O)cc3)Oc3cc(O)ccc32)c1O (stereo not drawn) has what cell viability?
Reply: 100

* * *

# Test system: myeloid leukemia patient primary cells Pat.2
# assay notes: cell viability (% survival relative to DMSO control); higher = less cytotoxic
# condition details: 10000 nM; 72 h
experimental readout: cell viability
Show the value, then the unit it is measured in.

| smi | cell viability |
| --- | --- |
| Oc1ccc(Nc2nc(-c3ccc(Cl)cc3)cs2)cc1 | 53.1% |
| COc1cc(/C=C/C(=O)N2CCC=CC2=O)cc(OC)c1OC | 4.56% |
| O=C(O)C1=CC(=C(c2ccc(O)c(C(=O)O)c2)c2ccc(O)c(C(=O)O)c2)C=CC1=O | 98.8% |

Please find the next compound below.
Query: Entry C=C(C=NNC(=N)N)NNC(=N)N has what cell viability?
Reply: 67.7%

* * *

# Tested on: KG-1
# assay notes: cell viability (% survival relative to DMSO control, bortezomib = 0%); higher = less cytotoxic
# condition details: 10000 nM; 72 h
Structures can show the parent of a compound that is named as a salt.
experimental readout: cell viability (%)
Response body: numeric value in %, unit text excluded.

Worked cases, answers included:
| compound | unit name | recorded result |
| --- | --- | --- |
| N#CC(C#N)=NNc1ccc(OC(F)(F)F)cc1 [FCCP] | % | 7.07 |
| CN(C)c1cc(NC(=O)CNC(C)(C)C)c(O)c2c1C[C@H]1C[C@H]3[C@H](N(C)C)C(=O)C(C(N)=O)C(=O)[C@@]3(O)C(=O)C1C2=O (stereo partly drawn) [Tigecycline] | % | 66.5 |
| Nc1ccccc1C(=O)C[C@H](N)C(=O)O [L-Kynurenine] | % | 96.7 |
| N#Cc1ccnc(N2C(=O)CC[C@H]2C(=O)N(c2cncc(F)c2)C(C(=O)NC2CC(F)(F)C2)c2ccccc2Cl)c1 (stereo partly drawn) [Ivosidenib] | % | 78.2 |
| NS(=O)(=O)c1ccc([N+](=O)[O-])cc1 [4-Nitrobenzenesulfonamide] | % | 92.3 |
| O=c1cc(-c2ccccc2)oc2cc(O)c(O)c(O)c12 [Baicalein] | % | 51 |

Query: Entry O=C(O)CCCCC(CCSCc1ccccc1)SCc1ccccc1 (stereo not drawn) [CPI-613] has what cell viability?
Reply: 93.6

Query: Entry Cc1cc(CS(=O)(=O)c2ccccc2)cc(OCc2ccc(CN3CCC[C@@H]3CO)cc2)c1 [PF-543 hydrochloride] has what cell viability?
Reply: 84.3

Query: Entry C[C@H](NC(=O)c1sccc1OCc1ccc(Cl)cc1)c1ccccc1 has what cell viability?
Reply: 61.4

Query: Entry CC[C@@]1(O)C(=O)OCc2c1cc1n(c2=O)Cc2cc3c(CN(C)C)c(O)ccc3nc2-1 [Topotecan] has what cell viability?
Reply: 6.8

Query: Entry CCCCN1C[C@H](O)[C@@H](O)[C@H](O)[C@H]1CO [Miglustat] has what cell viability?
Reply: 93.2

Query: Entry O=C(O)Cn1nnc(-c2cc(N3CCC(Oc4cc(F)ccc4Br)CC3)no2)n1 [MK-8245] has what cell viability?
Reply: 112

* * *

# Tested on: HL-60
# assay notes: cell viability (% survival relative to DMSO control); higher = less cytotoxic
# condition details: 1 µM; 72 h; co-treatment: DMSO vehicle
Reported values of cell viability for individual entries
Response body: numeric value in %, unit text excluded.

Worked cases, answers included:
| compound | unit name | cell viability |
| --- | --- | --- |
| Cc1c(-c2ccc(-c3ccccc3F)cc2)nc2ccc(F)cc2c1C(=O)O [Brequinar] | % | 87.8 |
| CCC(=O)N1CCN(c2ccc(-n3c(=O)ccc4cnc5ccc(-c6cnc7ccccc7c6)cc5c43)cc2C(F)(F)F)CC1 [Torin1] | % | 101 |
| O=C(O)c1cc(Cl)cc(Cl)c1O [3,5-Dichlorosalicylic Acid] | % | 106 |
| N#CC(C#N)=NNc1ccc(OC(F)(F)F)cc1 [FCCP] | % | 104 |
| O=c1cc(-c2ccccc2)oc2cc(O)c(O)c(O)c12 [Baicalein] | % | 98.9 |
| Cl.NC(CCC(=O)Nc1ccc([N+](=O)[O-])cc1)C(=O)O (centres undefined) [GPNA] | % | 102 |

Query: Entry CCCc1cc(-c2nc(-c3ccc(C)cc3)cs2)ccn1 [Fatostatin] has what cell viability?
Reply: 98.5

Query: Entry O[C@H]1[C@H]2[C@H](O)CCCN2C[C@H]1O [Swainsonine] has what cell viability?
Reply: 103

Query: Entry O=C(O)c1cc(N=Nc2ccc(S(=O)(=O)Nc3ccccn3)cc2)ccc1O [Sulfasalazine] has what cell viability?
Reply: 100
